assay: label from the status in PepcDB records
measuredParameter: protein production

1) MKISAVVVTFNRKKLLLECLNALRNQTYPLDAIFIIDGPSTDGTPEALLECGYIKELPPKKGNWSWETKNVIYSPINNKPIKVYYVRLYKDVGGSGGFYEGVKRAYEEGYNWIWLMDDDAEPREDALEKLIRYMNLPGVIALAPTVIRPTGEISKPHRGILCFKKIFPMIQIPLDESKYKSNQPVQIDFVSFVGPLIKRDAIKIVGFPKKEFFIHHDDVEYSIRLRTVGKIYLIPDSVIIHKENIKKTSLIKKRFLGKTIYRIPYNKLWKTYYGTRNLTYLGRIYSKSKFKFYFKLLKRWAVSVGAIILFDDHKIKRIQFITSAYLDGLRGKFDNEKPKRILYGGKKELEHHHHHH
not failed
2) MPIRDDISWPPSAVCSVSLILHLPGRFGHVSVAHLLLDHGADVNAQNRLGASVLTVASRGGHLGVVKLLLEAGAFVDHHHPSGEQLGLGGSRDEPLDITALMAAIQHGHEAVVRLLMEWGADPNHAARTVGWSPLMLAALTGRLGVAQQLVEKGANPDHLSVLEKTAFEVALDCKHRDLVDYLDPLTTVRPKTGQAACPPWLHRGPQIVFMWLKLRIALLEGHAELRVQPCRPLRLRKWCA
not failed

---

assay: label from the status in PepcDB records
measuredParameter: protein production

1. SGKVILITGASRGIGLQLVKTVIEEDDECIVYGVARTEAGLQSLQREYGADKFVYRVLDITDRSRMEALVEEIRQKHGKLDGIVANAGMLEPVKSISQSNSEHDIKQWERLFDVNFFSIVSLVALCLPLLKSSPFVGNIVFVSSGASVKPYNGWSAYGCSKAALNHFAMDIASEEPSDKVRAVCIAPGVVDTQMQKDIRETLGPQGMTPKALERFTQLYKTSSLLDPKVPAAVLAQLVLKGIPDSLNGQYLRYNDERLGPVQG
not failed
2. MLHIDDAMIEDAVTPQAAQEVLHAAFLDFGRGSAAMQRRVRTEAGGVKLSTLGAVIPGQGVAGAKVYTTIKGQFQFVILLFSAADGRPLATCDAGTLTRKRTAACTVLAAGALARPRSSVLGLFGAGTQGAEHAAQLSARFALEAILVHDPYASPEILERIGRRCGVPARMAAPADIAAQADIVVTATRSTTPLFAGQALRAGAFVGAIGSSLPHTRELDDEALRRARAVVVEWREQTLSEAGDLVLAAPDTGLDAKVVELADVLAGRAAARQADEDIVIYKSVGVGLEDVALAGYAYRRLAAQRGWPAP
not failed
3. MEISTKTLHFIEEHREDDTRTLALQSKKYPDVDMAAAVTQIAGRQVAARKIPSWYPVSALWYPPHLSMEQCSSEATALYKASLLEGDTFADLTGGFGIDCSFISRNFKQADYVERQSGLCELALHNFPLLGLGHIRIHNRDGISYLQEMLPVDCLFLDPARRDGHGGKTVAISDCEPDVTVLEPLLVDKAKKVMVKLSPMLDLSLALNELKTVRAVHIVAVNNECKELLLILQKESVSSEVSIHCEHIAGNGESRHYTFTLKQEKTSPCLLADEVGTYLYEPNAAILKAGAFRSLTQTYPVAKLHLNSHLYTSVSLVPDFPGRRFRVEAVSGFGKKELKAFLMDMDKANITIRNFPLSVAELRKRLKLKEGGDDYIFATTLSGGQKVLIRGKKC
not failed

Value source: a protein production outcome set (Wang et al. 2014)
